ASSAY EXPLANATION: Accelerating rotarod ataxia test
Format: in vivo, mice (male albino, NMR-1 strain)
MEASUREMENT SETUP: mouse, in vivo, ip; accelerating rotarod, i.p., mice; compound 2 tested 30 min postdosing; read-out: TD50 rotarod ataxia
Description: Male albino mice (NMR-1 strain) weighing 28-32 gm were used in a mouse anticonvulsant and rotarod test. […] The convulsant dose inducing seizures in 97% of mice (CD97) was determined and used in the pharmacological test. CD97 values obtained were: 85 for pentetrazol (PTZ), 15 for 4-aminopyridine (4-AP), 3.3 for bicuculline (BIC), 20 for thiosemicarbazide (TSC), and 2.0 for strychnine (STR) expressed as mg kg^-1. […]

COMPOUND	TD50, mg/kg
CCC(O)(CC(N)=O)c1ccccc1 (racemic) [Compound 2, (±)-3-hydroxy-3-phenylpentamide]	214

The measured values listed here are drawn from patent US5463125A.
